koff values by entry
biological target: T1, mouse serum albumin (MSA, Sigma-Aldrich) (mouse, UniProt P07724 25-608); experiment: BIAcore, MSA on CM5 chip
T1 construct: also called mouse albumin

# Binder, koff (s⁻¹)
rows = [
    ("DMS0191 (bispecific antibody, anti-TNFR1 dAb / AlbudAb in-line fusion) EVQLLESGGGLVQPGGSLRLSCAASGFTFVKYSMGWVRQAPGKGPEWVSQISNTGDRTYYADSVKGRFTISRDNSKNTLYLQMNSLRAEDTAVYYCAIYTGRWEPFDYWGQGTLVTVSSASTDIQMTQSPSSLSASVGDRVTITCRASQSIIKHLKWYQQKPGKAPKLLIYGASRLQSGVPSRFSGSGSGTDFTLTISSLQPEDFATYYCQQGTRWPQTFGQGTKVEIKRAAAEQKLISEEDLN", 0.11),
    ("DMS0182 (bispecific antibody, in-line fusion of an anti-TNFR1 dAb and an anti-serum albumin dAb (AlbudAb)) EVQLLESGGGLVQPGGSLRLSCAASGFTFVKYSMGWVRQAPGKGPEWVSQISNTGDRTYYADSVKGRFTISRDNSKNTLYLQMNSLRAEDTAVYYCAIYTGRWEPFDYWGQGTLVTVSSASTDIQMTQSPSSLSASVGDRVTITCRASRPIGTTLSWYQQKPGKAPKLLIWFGSRLQSGVPSRFSGSGSGTDFTLTISSLQPEDFATYYCAQAGTHPTTFGQGTKVEIKRAAAEQKLISEEDLN", 0.75),
    ("DMS0186 (bispecific antibody, anti-TNFR1 dAb / AlbudAb in-line fusion) EVQLLESGGGLVQPGGSLRLSCAASGFTFVKYSMGWVRQAPGKGPEWVSQISNTGDRTYYADSVKGRFTISRDNSKNTLYLQMNSLRAEDTAVYYCAIYTGRWEPFDYWGQGTLVTVSSASTDIQMTQSPSSLSASVGDRVTITCRASRPIGTMLSWYQQKPGKAPKLLILFGSRLQSGVPSRFSGSGSGTDFTLTISSLQPEDFATYYCAQAGTHPTTFGQGTKVEIKRAAAEQKLISEEDLN", 0.08),
]
